Data provenance: PubChem BioAssay (NCI)

Overview of reported TGI across a group of molecules:
Tested on: EKVX NSCLC
Test: NCI tumour cell line growth inhibition, 48 h

{"columns": ["SMI", "TGI"],
 "data": [
  ["Cn1c(-c2ccc(/C=N\\N3CCN(/N=C/c4ccc(-c5c[n+]6ccsc6n5C)cc4)CC3)cc2)c[n+]2ccsc12", "> 100 µM"],
  ["c1ccc(CN(Cn2cccn2)Cn2cccn2)nc1", "> 100 µM"]
]}

Briefly, TGI measured for `COc1cccc(/C=C2\CCCCCC2=O)c1` : > 100 µM

###

Tested on: MDA-MB-435
Experiment: NCI tumour cell line growth inhibition, 48 h
Listed below: TGI values for each entry.

In the examples that follow, each entry is paired with its recorded TGI.
{"columns": ["MOLECULE", "SYSTEM", "TGI"],
 "data": [
  ["COc1ccc(/C=C/C(=O)N[C@@H]2C(=O)N3[C@@H]2SC(C)(C)[C@@H]3C(=O)O)cc1", "MDA-MB-435", "> 100 µM"],
  ["O=c1ccn2n1CCCCC2", "MDA-MB-435", "> 100 µM"],
  ["OC1CN2CCS[C@H]2C(O)C1O (stereo partly specified)", "MDA-MB-435", "> 100 µM"],
  ["COc1cc2nc(Nc3cccc(F)c3)nc(Nc3cc(C)[nH]n3)c2cc1OC", "MDA-MB-435", "3.16 µM"],
  ["COc1ccc2[nH]c3c(c2c1)COc1ccccc1C3=O", "MDA-MB-435", "> 100 µM"]
]}

Param item: `CC(C)NC(=O)OCc1c(COC(=O)NC(C)C)n(C)c2c1ccc1ccccc12` ; param system: MDA-MB-435; output TGI: 4.9 µM
